- Tested on: Rat PRP (platelet aggregation)
- assay overview: Antiplatelet aggregation effect, rat platelet rich plasma (PRP)
- Type: cell-based, male Wister rats
- applied conditions: Rattus norvegicus, Platelet, 2 min, aggregating agent collagen 2.5 to 10 μg/ml, 37° C., 2 minutes incubation, Table II, read-out: Rat PRP IC50, Collagen

[
  {
    "compound": "COc1ccc(CNc2c(OCCC(O)c3ccc(Cl)cc3)n[nH]c(=O)c2Br)cc1OC (stereo not shown)",
    "units text": "nM",
    "IC50": 190
  }
]

* * *

- Tested on: Rat PRP (platelet aggregation)
- assay overview: Antiplatelet aggregation effect, rat platelet rich plasma (PRP)
- Assay type: cell-based, male Wister rats
- applied conditions: aggregating agent ADP 5 to 10 μM, 37° C., 2 minutes incubation, Table II, hydrochloride, read-out: Rat PRP IC50, ADP
- Protocol: Blood was collected from the abdominal aortae of male Wister rats (weight: 200 to 300 g) or male Japanese white rabbits (weight: 1.8 to 2.5 kg) into a syringe containing 1/10 volume 3.8% sodium citrate. The blood thus obtained was centrifuged at 200×g for 7 minutes at room temperature to obtain platelet rich plasma (PRP). […] Tables II and III show antiplatelet aggregation effects of test compounds evaluated as IC50 values (μM).
pIC50: −log10 of the molar value. Structures can show the parent of a compound that is named as a salt.
quantity: pIC50

[
  {
    "molecule": "O=c1[nH]nc(OCCC(O)c2ccc(Cl)cc2)c(NCc2cccnc2)c1Br (stereo not shown) [Compound No. 65, hydrochloride]",
    "test system": "Rat PRP (platelet aggregation)",
    "quantity": "pIC50",
    "experimental result": 6.68
  }
]
